# measurementTarget: Casein kinase I isoform alpha (Homo sapiens, UniProt P48729)
# Sequence (P48729 whole entry, canonical isoform): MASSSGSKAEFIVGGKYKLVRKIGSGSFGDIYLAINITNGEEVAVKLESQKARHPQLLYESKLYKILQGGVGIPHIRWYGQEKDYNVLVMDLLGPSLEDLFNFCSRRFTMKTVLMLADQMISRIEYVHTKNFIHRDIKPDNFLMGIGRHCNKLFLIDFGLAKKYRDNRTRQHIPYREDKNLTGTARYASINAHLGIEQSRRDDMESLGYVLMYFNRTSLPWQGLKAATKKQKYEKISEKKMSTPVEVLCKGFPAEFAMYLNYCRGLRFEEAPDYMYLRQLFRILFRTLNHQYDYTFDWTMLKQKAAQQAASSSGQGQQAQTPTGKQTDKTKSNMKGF
# measurementNotes: CSNK1A1 Inhibitory activity Assay 2
For each of the compounds below, state its IC50.
Kindly answer with a numeric value in nM, unit omitted.

# input compound: CC(C)C(C(=O)Nc1cc(-c2[nH]c3ccc(F)nc3c2-c2ccccn2)ccn1)c1ccc(F)cc1 (single isomer, unassigned) ; wanted: its IC50
4.79

Also check O=C(Cc1ccc(F)cc1)Nc1cc(-c2[nH]c3c(CC4CC4)cc(F)nc3c2-c2ccccn2)ccn1
4

====

# measurementTarget: Casein kinase I isoform alpha (Homo sapiens)
# measurementNotes: CSNK1A1 High ATP Assay
For each of the compounds below, state its pIC50.
Scale explanation: pIC50 corresponds to minus log10 of a concentration expressed in moles per litre.

Field: pIC50 (Casein kinase I isoform alpha (Homo sapiens)). Entry: O=C(Cc1ccc(F)cc1)Nc1cc(-c2[nH]c3c(CC4CC4)cc(F)nc3c2-c2ccccn2)ccn1
8.02

Also check CC(C)C(C(=O)Nc1cc(-c2[nH]c3ccc(F)nc3c2-c2ccccn2)ccn1)c1ccc(F)cc1 (single isomer, unassigned)
7.37
